Compiled record: log10(Ki) values for Coagulation factor XI (Homo sapiens) across several sources.
Scale: decimal log of Ki, Ki in µM.

# input Fill in: log10(Ki) of COC(=O)Nc1ccc2c(c1)NC(=O)C(C)CCCC(c1ccc(-c3c(F)ccc(Cl)c3F)c[n+]1[O-])c1ccc(F)c-2c1 (single isomer, unassigned) is ___
# output -2.78

# input Another: COC(=O)Nc1ccc2c(c1)NC(=O)CCCCC(c1ccc(-c3c(F)ccc(Cl)c3F)cn1)c1cc-2ncn1 (stereo not shown)
# output -0.79

# input Another: `N=C(N)c1ccc(CNC(=O)CNC(=O)[C@@H](CC2CCCCC2)NS(=O)(=O)Cc2ccccc2)cc1`
# output 1.40

# input Another: `N=C(N)NCc1cccc(C[C@@H](NS(=O)(=O)Cc2ccccc2)C(=O)NCC(=O)NCc2ccc(C(=N)N)cc2)c1`
# output -0.66

# input Another: `O=C(Nc1n[nH]c2cccnc12)[C@H](Cc1ccccc1)n1cnc(-c2cc(Cl)ccc2-n2cc(Cl)nn2)cc1=O`
# output -0.20

# input Another: `COC(=O)Nc1ccc2c(c1)NC(=O)CCCC[C@@H](C(=O)N1CCC[C@@]3(C1)OC(=O)Nc1ccc(Cl)cc13)c1nc-2c(Cl)[nH]1`
# output -3.38

# input Another: Nc1ccc2c(c1)NC(=O)CCCCC(c1ccc(-c3c(F)ccc(Cl)c3F)c[n+]1[O-])c1nc-2c[nH]1 (single isomer, unassigned)
# output -3.74

# input Another: CCc1[nH]c2nc1-c1ccc(NC(=O)OC)cc1NC(=O)CCCC[C@@H]2c1ccc(-c2c(F)cccc2OC(F)F)c[n+]1[O-] (single isomer, unassigned)
# output -3.82

# input Another: `CC(C)(C)OC(=O)N1CC(=O)N2c3cccc(c3)[C@@H](n3cnc(-c4cc(Cl)ccc4-n4cc(Cl)nn4)cc3=O)CCCCCNC(=O)[C@@H]2C1`
# output 0.96

# input Another: `N=C(N)c1ccc(CNC(=O)[C@H](CCCCN)NC(=O)[C@@H](CO)NS(=O)(=O)Cc2ccccc2)cc1`
# output -0.05

# input Another: `C[C@@H]1CCC[C@H](N2CCC(c3c(F)ccc(Cl)c3F)=CC2=O)c2cc(ccn2)-c2nn(-c3ccnc(O)c3)cc2NC1=O`
# output -1.85

# input Another: `Cn1ccnc1N1CCN(C(=O)[C@H](Cc2ccccc2)n2cnc(-c3cc(Cl)ccc3-n3cc(Cl)nn3)cc2=O)CC1`
# output 0.49

# input Another: `C[C@@H]1CCC[C@H](N2CCC(c3c(C#N)ccc(Cl)c3F)=CC2=O)c2cc(ccn2)-c2c(cnn2C)NC1=O`
# output -2.96

# input Another: `COC(=O)Nc1ccc2c(c1)NC(=O)CCCC[C@H](NC(=O)c1cn(-c3cccc(Cl)c3)nn1)c1nc-2c[nH]1`
# output -0.66

# input Another: `NCc1ccc2c(c1)CCN([C@@H](Cc1ccccc1)C(=O)Nc1ccc3ccncc3c1)C2=O`
# output 0.03

# input Another: `Cc1ccc(-n2cc(C(F)(F)F)nn2)c(-c2cc(=O)n([C@H]3CCC[C@@H](C)C(=O)Nc4cnn(C(F)F)c4-c4cc3ccn4)cn2)c1`
# output -2.96

# input Another: `C[C@@H]1CCC[C@H](c2ccc(-c3cc(Cl)ccc3-n3cnnn3)c[n+]2[O-])c2cccc(c2)-c2cc(F)ccc2NC1=O`
# output -3.74

# input Another: O=c1cc(-c2cc(Cl)ccc2-n2cnnn2)ccn1C(Cc1ccc(F)cc1)c1nc(-c2ccc(F)cc2)c[nH]1 (stereo not shown)
# output -0.81

# input Another: `COC(=O)c1ccc(CS(=O)(=O)N[C@H](CO)C(=O)NCC(=O)NCc2ccc(C(=N)N)cc2)cc1`
# output 0.91

# input Another: `N=C(N)c1ccc(CNC(=O)[C@H](CO)NC(=O)[C@@H](CCc2ccc(O)cc2)NS(=O)(=O)Cc2ccccc2)cc1`
# output -1.11

# input Another: COC(=O)Nc1ccc(-c2cc([C@H](CC3CCCN(C(=O)C4CC4)C3)NC(=O)/C=C/c3cc(Cl)ccc3-n3cnnn3)nnc2Cl)cc1 (stereo partly shown)
# output 0.80

# input Another: Cn1cc2c(n1)-c1cccc(c1)C(c1ccc(-c3c(F)ccc(Cl)c3F)c[n+]1[O-])CCCCC(=O)N2 (stereo not shown)
# output -1.65

# input Another: O=C1CCCCC(c2ccc(-c3c(-n4cnnn4)ccc(Cl)c3F)c[n+]2[O-])c2cccc(c2)-c2cc(C(=O)O)ccc2N1 (single isomer, unassigned)
# output -3.89
